Test system: EfPiwi piRISC loaded with piRNA #1 (26 nt)
Test: pre-steady-state target cleavage rate (min^-1); auxiliary factor: 500 nM Ephydatia muelleri Gtsf1; guide: piRNA #1 5'p-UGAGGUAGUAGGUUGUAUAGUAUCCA; higher = faster piRNA-guided slicing of the target
pre-steady-state target cleavage rate class ranges: lowest (below 0.004), middle (0.004 to below 0.009), highest (0.009 or more)

| sequenceCode | studySystem | category |
| --- | --- | --- |
| GGAGUGGAUACUAUUCAACCUACUACGUCA | EfPiwi piRISC loaded with piRNA #1 (26 nt) | lowest |
| GGAGAGGAUACUAUACAACCUUCAACCUCA | EfPiwi piRISC loaded with piRNA #1 (26 nt) | lowest |
| GGAGAGGCUACUAUACAACCUACUACCUCA | EfPiwi piRISC loaded with piRNA #1 (26 nt) | highest |
| GGAGACCUUACUAGACAACCUACUACCUCA | EfPiwi piRISC loaded with piRNA #1 (26 nt) | highest |
| GGAGUGGAUACUAUAGCAACCUACUACCUCA | EfPiwi piRISC loaded with piRNA #1 (26 nt) | highest |
| GGAGACCUAUGAUAUGUACCUACAUACCUCA | EfPiwi piRISC loaded with piRNA #1 (26 nt) | lowest |
| GGAGUGGAUACUAUUCAACCUACUACCACA | EfPiwi piRISC loaded with piRNA #1 (26 nt) | lowest |
| GGAGUGGAUACUAUACAACCUACUUACCUCA | EfPiwi piRISC loaded with piRNA #1 (26 nt) | middle |
| GGAGACGAUACUAUACAACCUACUUCGUCA | EfPiwi piRISC loaded with piRNA #1 (26 nt) | middle |
| GGAGUGGAUACAAUACAACCUACUACGUCA | EfPiwi piRISC loaded with piRNA #1 (26 nt) | lowest |
| GGAGAGGAUACUAUACAACCUACUACGUCA | EfPiwi piRISC loaded with piRNA #1 (26 nt) | middle |
| GGAGACCUUACUAUGCAACCUACUACCUCA | EfPiwi piRISC loaded with piRNA #1 (26 nt) | middle |
| GGAGUGGAUAGUAUACAACCUACUACCUGA | EfPiwi piRISC loaded with piRNA #1 (26 nt) | lowest |

----------
Tested on: EfPiwi piRISC loaded with L1MC piRNA (26 nt)
Test: pre-steady-state target cleavage rate (min^-1); auxiliary factor: 500 nM Ephydatia muelleri Gtsf1; guide: L1MC piRNA 5'p-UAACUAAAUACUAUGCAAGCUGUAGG; higher = faster piRNA-guided slicing of the target
Note to self: values exactly at 0.006 are yes. So pre-steady-state target cleavage rate at or above 0.006 is yes, below is no.

| sequenceCode | category |
| --- | --- |
| UCCUGGAUGAGCUUGCAUGGUAUUUAGUUA | yes |
| UCCUGGAUCAGCUUGCAUAGUAUUUAGUUA [g2:g22:cont:t1A] | yes |
| UCCUCCUACAGCUUGCAUAGUAUUAUGUAA | no |
| UCCUGGAUCAGCUAGCAUAGUAUUUAGUUA | yes |
| UCCUGGAUGAGCUUGCAUAGUAUUUAGUUG [g2:g21:cont:t1G] | yes |
| UCCUGGAACAGCUUGCAUAGUAUUUAGUGA | no |
| UCCUGGAACAGCUUGCAUAGUAUAUUGUUA | no |
| UCCUCCUACACCUAGCAUAGUAUUUAGUUA | yes |
| UCCUCCAACAGGUUGCAUAGUAUUUAGUUA | yes |
| UCCUGGAUCUCCUUGCAUAGUAUUUAGUAA | no |
| UCCUGGAUGUCGUUGCAUAGUAGUUUAGUUA | yes |
| UCCUGCGACAGCUUGCAUAGUAUUUAGUUA | yes |
| UCCUGCUACAGCUGUGCAUAGUAUUUAGUUA | yes |
| UCCUCCUCAGCUUGCAUAGUAUUUAGUUA | yes |
| UCCUGGUACAGCUUGCAUUGUAAUUAGUUA | no |
| UCCUCCUACUGCUUGCAUAGAAUUUAGUUA | yes |
| UCCUGGAACAGCUUCGCAUAGUAUUUAGUUA | yes |
| UCCUGGUACAGCUUGCUUAGUAUAUAGUUA | yes |
| UCCUCCUACAGCUUGUAUAGUAUUUAGUUA | yes |
| UCCUCCUACAGCUUUGCAUAGUAUUUAGUUA | yes |
| UCCUGGUACAGGUUGCUUAGUAUUUAGUUA | no |
| UCCUGGAACAGCUUGCAUAGUAAUUAGUAA | no |
| UCCUGGAUGUCGAACGUCAGUAUUUAGUUA | no |

----------
System: MILI (PIWIL2) piRISC loaded with L1MC piRNA (26 nt);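 note: 1 nM active piRISC with 0.1 nM target library at 33 °C single turnover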
Assay: pre-steady-state target cleavage rate (min^-1); guide: L1MC piRNA 5'p-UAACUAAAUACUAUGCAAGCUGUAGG; higher = faster piRNA-guided slicing of the target
Conditions: auxiliary factor: none (no GTSF1)
Note to self: values exactly at 0.007 are y. So pre-steady-state target cleavage rate at or above 0.007 is y, below is n.

| sequenceCode | category |
| --- | --- |
| UCCUGGAUGUCGGUGCAUAGUAUUUAGUUA | y |
| UCCUGGUUGUGCUUGCAUAGUAUUUAGUUA | y |
| UCCUGGAACAGUUGCAUAGUAUUUAGUUA | n |
| UCCUCCUACAGGAAGCAUAGUAUUUAGUAA | n |
| UCCUCCUACAGCUUGCAAAGUAAUUAGUUA | n |
| UCCUGGUACAGGUUGCAUAGUAUAUAGUUA | y |
| UCCUGGAUCAGCUUGGAUAGUAUUUAGUUA | y |

----------
pre-steady-state target cleavage rate values by entry
Test system: MILI (PIWIL2) piRISC loaded with piRNA #1 (26 nt);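 note: 1 nM active piRISC with 0.1 nM target library at 33 °C single turnover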
Test: pre-steady-state target cleavage rate (min^-1); guide: piRNA #1 5'p-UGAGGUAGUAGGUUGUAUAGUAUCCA; MIWI and MILI are mouse PIWI proteins and EfPiwi is from a freshwater sponge; tags in brackets are library labels; higher = faster piRNA-guided slicing of the target
Conditions: auxiliary factor: 500 nM mouse GTSF1

| sequenceCode | pre-steady-state target cleavage rate |
| --- | --- |
| GGAGACCUAUGUAUACAACCUACUACCUCG [g2:g19:cont:t1G] | 0.0649 |
| GGAGUGGAUACUAUACAACCAACAACCUCA | 0.00386 |
| GGAGACCAUACUAUACAAGCUACUACGUCA | 0.139 |
| GGAGACCUAACUAUACUACCUACUAGCUCA | 0.0708 |
| GGAGACCUUACUAUACAACCUACUUACCUCA | 0.158 |
| GGAGACCUUACUAAACAACCUACUUCCUCA | 0.0656 |
| GGAGACGUUACUAUACAACCAACUACCUCA | 0.0041 |
| GGAGACGAAACUAUACUACCUACUACCUCA | 0.132 |
| GGAGAGGUAUCUAUACAACCUACUACCUCA | 0.0739 |
| GGAGACCAUACUAAACAACCUACUACCUCA | 0.153 |
| GGAGUGGAUACUAUACAACGUACUACGUCA | 0.0108 |
| GGAGUGGAUACUAUACAUGCUACUACCUCA | 0.109 |
| GGAGACCUAUGUAUAGAUCCUACUACCUCA | 0.0611 |
| GGAGACCUAUGAUAUCAACCUACGUACCUCA | 0.00296 |
| GGAGACCAUACUAUACAACCUAGAUCCUCA | 0.0232 |
| GGAGAGGAUACUAUACAUCGUACUACCUCA | 0.0374 |
| GGAGACCUUACUAUACAACCUACAACCUGA | 0.0284 |
| GGAGACCUAUGUAUACAGCCUACUACCUCA | 0.0196 |
| GGAGACCUUACUAUACAACCUACUACCUAA | 0.154 |
| GGAGACGAUACUAUACAACCAACUACGUCA | 0.00504 |
| GGAGACGAUACUAUACUACGUACUACCUCA | 0.0345 |
| GGAGACGAUACUAUACAACCUACAACCACA | 0.0888 |
| GGAGACCUAUCUAUACAACCUACUACCUCA [g2:g20:cont:t1A] | 0.11 |
| GGAGACCUAUGAUAUCACCUACUACCUCA | 0.00625 |
| GGAGACGAAACUAUACAACCUACUACCUCA | 0.172 |
| GGAGACGAUUCUAUACAACCUACUACCACA | 0.219 |
| GGAGACCUAUGAUUACAACCUACUACUUCA | 0.00418 |

Where these numbers come from: the supplement of paper PMC10338343
